- assayed system: EPAC1 (Homo sapiens (Human), UniProt O95398)
- run description: biochemical
- assay conditions: Rap 1b-bGDP EPAC1 IC50
pIC50: −log10 of the molar value.
Threshold check on pIC50: at or above 5 gives 1, strictly below gives 0.

1) N#CC(=NNc1cc(F)cc(Cl)c1)C(=O)c1noc2ccccc12	0

Now consider the entry below.
(Q) Quick check, pIC50 >= 5? N#CC(=NNc1cc(Cl)cc(C(F)(F)F)c1)C(=O)c1cc(-c2ccco2)on1
(A) 1

----------
- assayed system: EPAC1 (Homo sapiens (Human))
- run description: biochemical
- assay conditions: Rap 1b-bGDP EPAC1 IC50, apparent IC50, EPAC1 GEF activity, 20 μM cAMP
I'd appreciate it if you could supply IC50 values for the items below.
Answers are plain numbers, in µM.

// worked examples, IC50 included
1) N#CC(=NNc1cc(Cl)cc(C(F)(F)F)c1)C(=O)c1noc2ccccc12 [Compound 31]	4.6
2) N#CC(=NNc1ccc(C(F)(F)F)c(Cl)c1)C(=O)c1noc2ccccc12 [Compound 32]	3

Provide the reported IC50 of each entry below, same order.
1. N#CC(=NNc1ccc(Cl)c(C(F)(F)F)c1)C(=O)c1noc2ccccc12 [Compound 33]
2. N#CC(=NNc1ccc(Cl)c(C(F)(F)F)c1)C(=O)c1cc(-c2ccco2)on1 [Compound 27]
3. CC(C)(C)c1ccc(-c2cc(C(=O)C(C#N)=NNc3ccc(C(F)(F)F)c(Cl)c3)no2)cc1 [Compound 9]
4. N#CC(=NNc1cc(C(F)(F)F)cc(C(F)(F)F)c1)C(=O)c1noc2ccccc12 [Compound 36]
5. CC(C)(C)c1ccc(-c2cc(C(=O)C(C#N)=NNc3ccc(Cl)c(C(F)(F)F)c3)no2)cc1 [Compound 10]

(A)
[2.7, 4.2, 9, 6.7, 7.3]

(Q) May I ask what IC50 has been recorded for CC(C)(C)c1ccc(-c2cc(C(=O)C(C#N)=NNc3cc(C(F)(F)F)cc(C(F)(F)F)c3)no2)cc1 [Compound 11] ?
(A) 11.9
